# Test system: hPIV-3 strain JS
# testDescription: Haemagglutination inhibition (HI) assay with human red blood cells
# Assay type: biochemical
# experimentalParameters: hPIV3 JS
recordedMetric: IC50 (µM)

1. CC(=O)N[C@H]1[C@H]([C@H](O)[C@H](O)CO)OC(C(=O)O)=C[C@@H]1n1cc(-c2ccccc2NS(C)(=O)=O)nn1 [drawing 111]    28
2. CC(=O)N[C@H]1[C@H]([C@H](O)[C@H](O)CO)OC(C(=O)O)=C[C@@H]1n1cc(-c2ccccc2NC(=O)CNS(=O)(=O)c2ccc([N+](=O)[O-])cc2)nn1    8
3. CC(=O)N[C@H]1[C@H]([C@H](O)[C@H](O)CO)OC(C(=O)O)=C[C@@H]1n1cc(-c2ccccc2NS(=O)(=O)c2ccc([N+](=O)[O-])cc2)nn1    4.48
4. CC(=O)N[C@H]1[C@H]([C@H](O)[C@H](O)CO)OC(C(=O)O)=C[C@@H]1n1cc(-c2ccccc2NC(=O)CNC(=O)c2ccc(-c3ccccc3)cc2)nn1    6.4

----------
# systemName: hPIV-3 strain CI002 (clinical isolate) neuraminidase (UniProt P08492, species not given/STRAIN_CI002)
# Sequence (P08492 whole entry, change not shown): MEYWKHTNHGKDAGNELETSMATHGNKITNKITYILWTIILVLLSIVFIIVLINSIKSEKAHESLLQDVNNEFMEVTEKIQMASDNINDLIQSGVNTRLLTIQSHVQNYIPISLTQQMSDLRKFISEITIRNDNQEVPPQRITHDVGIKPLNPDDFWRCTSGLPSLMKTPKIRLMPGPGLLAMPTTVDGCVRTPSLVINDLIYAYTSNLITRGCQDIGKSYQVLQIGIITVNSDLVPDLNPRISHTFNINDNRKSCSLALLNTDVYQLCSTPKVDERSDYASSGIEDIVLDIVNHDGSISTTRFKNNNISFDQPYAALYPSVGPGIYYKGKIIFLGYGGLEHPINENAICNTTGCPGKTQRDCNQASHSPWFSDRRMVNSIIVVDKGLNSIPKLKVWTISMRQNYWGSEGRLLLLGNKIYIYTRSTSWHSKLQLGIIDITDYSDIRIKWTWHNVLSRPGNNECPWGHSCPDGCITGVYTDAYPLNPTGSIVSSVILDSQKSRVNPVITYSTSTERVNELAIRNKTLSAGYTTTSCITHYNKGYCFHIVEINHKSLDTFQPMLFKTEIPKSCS
# Assay type: biochemical
# experimentalParameters: hPIV3 CI002; read-out: NI IC50
recordedMetric: log10(IC50) (log10 of the value in µM)

1) O=C(O)C1=C[C@H](n2cc3ccc(F)cc3n2)[C@@H](NC(=O)C(F)(F)F)[C@H]([C@H](O)[C@H](O)CO)O1    2.01
2) N#Cc1ccc2cn([C@H]3C=C(C(=O)O)O[C@@H]([C@H](O)[C@H](O)CO)[C@@H]3NC(=O)C(F)(F)F)nc2c1    2.32
3) N#Cc1ccc2nn([C@H]3C=C(C(=O)O)O[C@@H]([C@H](O)[C@H](O)CO)[C@@H]3NC(=O)C(F)(F)F)cc2c1    2.16
4) CC(C)C(=O)N[C@H]1[C@H]([C@H](O)[C@H](O)CO)OC(C(=O)O)=C[C@@H]1n1cc2cc(C(=O)O)ccc2n1    2.21
5) CC(C)C(=O)N[C@H]1[C@H]([C@H](O)[C@H](O)CO)OC(C(=O)O)=C[C@@H]1n1cc2ccc(C(=O)O)cc2n1    2.58
6) O=C(O)C1=C[C@H](n2cc3c(Br)cccc3n2)[C@@H](NC(=O)C(F)(F)F)[C@H]([C@H](O)[C@H](O)CO)O1    0.95
7) CC(=O)N[C@H]1[C@H]([C@H](O)[C@H](O)CO)OC(C(=O)O)=C[C@@H]1n1cc(-c2ccccc2NC(=O)CCNS(=O)(=O)Cc2ccccc2)nn1    1.73
8) COc1ccc(OC)c2nn([C@H]3C=C(C(=O)O)O[C@@H]([C@H](O)[C@H](O)CO)[C@@H]3NC(=O)C(F)(F)F)cc12    1.87
9) O=C(O)C1=C[C@H](n2cc3cc4c(cc3n2)OCO4)[C@@H](NC(=O)C(F)(F)F)[C@H]([C@H](O)[C@H](O)CO)O1    1.59
